All values here come from patent US20120115877A1.

- System: RPMI-8226
- assay: NCI-60 screen, Leukemia
- Assay type: cell-based, human
- condition context: 10 μM
property: Percent Growth (%)
Output spec: scalar in %, unitless text.

Request: Write down Percent Growth measured for item NCCCc1cccc(-c2ccc3oc4ccc(-c5cccc(CCCN)c5)cc4c3c2)c1 [Compound G]
Result: 65.28

Request: Write down Percent Growth measured for item N=C(N)NCCCCC(=O)Nc1cc(C(F)(F)F)cc(NC(=O)Nc2ccc(NC(=O)Nc3cc(C(F)(F)F)cc(NC(=O)CCCCNC(=N)N)c3OC3CCNC3)cc2)c1OC1CCNC1 (stereo not shown) [Compound B]
Result: 49.97

Request: Write down Percent Growth measured for item NCCc1cc(Br)cc(C#Cc2cccc(C#Cc3cc(Br)cc(CCN)c3)c2)c1 [Compound A]
Result: 9.497

Request: Write down Percent Growth measured for item NCCCc1cccc(-c2ccc3sc4ccc(-c5cccc(CCCN)c5)cc4c3c2)c1 [Compound D]
Result: 62.06

* * *

- System: HOP-92
- assay: NCI-60 screen, Non-Small Cell Lung Cancer
- Type: cell-based, human
- condition context: 10 μM
What Percent Growth was measured for each of the following?
Output spec: scalar in %, unitless text.

Request: Write down Percent Growth measured for item `NCCSc1cc(SCCN)c(C(F)(F)F)cc1NC(=O)c1cc(C(=O)Nc2cc(C(F)(F)F)c(SCCN)cc2SCCN)ncn1`
Result: −24.05

Request: Write down Percent Growth measured for item `N=C(N)NCCCCC(=O)Nc1cc(C(F)(F)F)cc(NC(=O)c2cc(C(=O)Nc3cc(C(F)(F)F)cc(NC(=O)CCCCNC(=N)N)c3SCCN)ncn2)c1SCCN`
Result: 93.99

Request: Write down Percent Growth measured for item N=C(N)NCCCCC(=O)Nc1cc(C(F)(F)F)cc(NC(=O)Nc2ccc(NC(=O)Nc3cc(C(F)(F)F)cc(NC(=O)CCCCNC(=N)N)c3OC3CCNC3)cc2)c1OC1CCNC1 (stereo not shown)
Result: 81.51

Request: Write down Percent Growth measured for item `NCCc1cc(Br)cc(C#Cc2cccc(C#Cc3cc(Br)cc(CCN)c3)c2)c1`
Result: 73.03

Request: Write down Percent Growth measured for item `c1cc(-c2ccc3sc4ccc(-c5ccnc(N6CCNCC6)c5)cc4c3c2)cc(N2CCNCC2)n1`
Result: 32.76

Request: Write down Percent Growth measured for item `NCCCc1cccc(-c2ccc3oc4ccc(-c5cccc(CCCN)c5)cc4c3c2)c1`
Result: 61.6

Request: Write down Percent Growth measured for item `NCCCc1cccc(-c2ccc3sc4ccc(-c5cccc(CCCN)c5)cc4c3c2)c1`
Result: 78.26

* * *

What Percent Growth was measured for each of the following?
- System: EKVX
- assay: NCI-60 screen, Non-Small Cell Lung Cancer
- Type: cell-based, human
- condition context: 10 μM
Output spec: scalar in %, unitless text.

Request: Write down Percent Growth measured for item `NCCCc1cccc(-c2ccc3oc4ccc(-c5cccc(CCCN)c5)cc4c3c2)c1`
Result: 81.69

Request: Write down Percent Growth measured for item `NCCc1cc(Br)cc(C#Cc2cccc(C#Cc3cc(Br)cc(CCN)c3)c2)c1`
Result: 62.48

Request: Write down Percent Growth measured for item `NCCCc1cccc(-c2ccc3sc4ccc(-c5cccc(CCCN)c5)cc4c3c2)c1`
Result: 98.18

Request: Write down Percent Growth measured for item N=C(N)NCCCCC(=O)Nc1cc(C(F)(F)F)cc(NC(=O)Nc2ccc(NC(=O)Nc3cc(C(F)(F)F)cc(NC(=O)CCCCNC(=N)N)c3OC3CCNC3)cc2)c1OC1CCNC1 (stereo not shown)
Result: 61.92

Request: Write down Percent Growth measured for item `c1cc(-c2ccc3sc4ccc(-c5ccnc(N6CCNCC6)c5)cc4c3c2)cc(N2CCNCC2)n1`
Result: 22.56

Request: Write down Percent Growth measured for item `NCCSc1cc(SCCN)c(C(F)(F)F)cc1NC(=O)c1cc(C(=O)Nc2cc(C(F)(F)F)c(SCCN)cc2SCCN)ncn1`
Result: 75.72

Request: Write down Percent Growth measured for item `N=C(N)NCCCCC(=O)Nc1cc(C(F)(F)F)cc(NC(=O)c2cc(C(=O)Nc3cc(C(F)(F)F)cc(NC(=O)CCCCNC(=N)N)c3SCCN)ncn2)c1SCCN`
Result: 59.82
